# target_of_assay: BRAF V600E (Homo sapiens, UniProt P15056, V600E)
# Construct: endogenous C-terminal HiBiT fusion tag on BRAF V600E allele; endogenous in cells; host or cells: A375 clone 1F10 (CRISPR-Cas9 knock-in of the HiBiT tag; parental A375 from ATCC)
# Sequence (P15056 whole entry V600E, the tested form may be a part): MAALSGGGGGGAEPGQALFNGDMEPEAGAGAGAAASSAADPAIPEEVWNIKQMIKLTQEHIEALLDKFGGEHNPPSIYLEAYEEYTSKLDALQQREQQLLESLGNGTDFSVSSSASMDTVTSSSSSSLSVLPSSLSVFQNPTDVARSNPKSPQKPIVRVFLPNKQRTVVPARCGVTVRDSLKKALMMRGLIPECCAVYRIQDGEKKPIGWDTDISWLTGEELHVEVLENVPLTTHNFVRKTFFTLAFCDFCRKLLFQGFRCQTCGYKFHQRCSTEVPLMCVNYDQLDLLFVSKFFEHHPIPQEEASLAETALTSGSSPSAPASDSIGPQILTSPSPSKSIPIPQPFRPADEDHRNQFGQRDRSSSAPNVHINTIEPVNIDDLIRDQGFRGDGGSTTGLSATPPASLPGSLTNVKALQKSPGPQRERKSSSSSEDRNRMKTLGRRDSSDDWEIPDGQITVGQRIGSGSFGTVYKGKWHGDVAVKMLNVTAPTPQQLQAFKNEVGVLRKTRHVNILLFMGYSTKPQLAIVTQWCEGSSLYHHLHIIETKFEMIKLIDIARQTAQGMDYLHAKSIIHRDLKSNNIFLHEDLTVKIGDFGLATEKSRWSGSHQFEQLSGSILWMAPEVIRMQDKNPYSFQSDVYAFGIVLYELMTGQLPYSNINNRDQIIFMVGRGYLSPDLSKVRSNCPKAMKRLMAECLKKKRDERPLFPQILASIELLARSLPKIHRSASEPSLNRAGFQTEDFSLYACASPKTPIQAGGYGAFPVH
# method_description: BRAF HiBiT degradation assay, C-terminal HiBiT-tagged BRAF V600E A375 cells (clone 1F10), Nano-Glo HiBiT Lytic assay
# Assay type: cell-based
# test_parameters: A375 (BRAF V600E, Class 1); DC50 at 50% degradation
readout_type: DC50

Lab note: C[C@@H]1CN(c2ccc(-n3cc(-c4cc(Cl)cc(NS(=O)(=O)N5CCCC5)c4F)c(-c4ccncc4)n3)nc2)CCN1CC1CCN(c2ccc(N3CCC(=O)NC3=O)cc2)CC1 gave DC50 of < 0.01 µM

Lab note: O=C1CC[C@H](c2ccc(N3CCC(CN4CCN(c5ccc(-n6cc(-c7cc(F)cc(NS(=O)(=O)N8CCCC8)c7F)c(-c7ccncc7)n6)c(F)c5)CC4)CC3)cc2)C(=O)N1 gave DC50 of < 0.01 µM

Lab note: O=C1CC[C@H](c2ccc(N3CCC(CN4CCN(c5ccc(-n6cc(-c7cc(Cl)cc(NS(=O)(=O)N8CCCC8)c7F)c(-c7ccncc7)n6)nc5)CC4)CC3)cc2)C(=O)N1 gave DC50 of < 0.01 µM

Lab note: O=C1CC[C@H](c2ccc(N3CCC(CN4CCN(c5ccc(-n6cc(-c7cc(Cl)cc(NS(=O)(=O)N8CCCC8)c7F)c(-c7ccncc7)n6)cc5)CC4)CC3)cc2F)C(=O)N1 gave DC50 of < 0.01 µM

Lab note: O=C1CC[C@H](c2ccc(N3CCC(CN4CCN(c5ccc(-n6cc(-c7cc(Cl)cc(NS(=O)(=O)N8CCCC8)c7F)c(-c7ccncc7)n6)cn5)CC4)CC3)cc2)C(=O)N1 gave DC50 of < 0.01 µM

Lab note: O=C1CC[C@H](c2ccc(N3CCC(CN4CCN(c5ccc(-n6cc(-c7cc(F)cc(NS(=O)(=O)N8CC[C@@H](F)C8)c7F)c(-c7ccncc7)n6)nc5)CC4)CC3)nc2)C(=O)N1 gave DC50 of < 0.01 µM

Lab note: O=C1CCC(c2ccc(N3CCC(CN4CCN(c5ccc(-n6cc(-c7cc(Cl)cc(NS(=O)(=O)C8CCCC8)c7F)c(-c7ccncc7)n6)cc5)CC4)CC3)nc2)C(=O)N1 (racemic) gave DC50 of < 0.01 µM

Lab note: CCN(C)S(=O)(=O)Nc1cc(Cl)cc(-c2cn(-c3ccc(N4CCN(CC5CCN(c6ccc(C7CCC(=O)NC7=O)cn6)CC5)CC4)cc3)nc2-c2ccncc2)c1F (racemic) gave DC50 of < 0.01 µM

Lab note: O=C1CCC(c2ccc(N3CCC(CN4CCN(c5ccc(-n6cc(-c7cc(C(F)F)cc(NS(=O)(=O)N8CCCC8)c7F)c(-c7ccncc7)n6)cc5)CC4)CC3)nc2)C(=O)N1 (racemic) gave DC50 of < 0.01 µM

Lab note: CCCS(=O)(=O)Nc1cccc(-c2nc(C3CCC4(CC3)CCN(CC3CCN(c5ccc(C6CCC(=O)NC6=O)cc5)CC3)CC4)sc2-c2ccnc(N)n2)c1F (racemic) gave DC50 of 0.05 to 0.5 µM

From: patent US20260317324A1
